Biological target: T1, wild-type PTP1B catalytic domain (amino acids 1-321) (human) (UniProt P18031)
T1 sequence: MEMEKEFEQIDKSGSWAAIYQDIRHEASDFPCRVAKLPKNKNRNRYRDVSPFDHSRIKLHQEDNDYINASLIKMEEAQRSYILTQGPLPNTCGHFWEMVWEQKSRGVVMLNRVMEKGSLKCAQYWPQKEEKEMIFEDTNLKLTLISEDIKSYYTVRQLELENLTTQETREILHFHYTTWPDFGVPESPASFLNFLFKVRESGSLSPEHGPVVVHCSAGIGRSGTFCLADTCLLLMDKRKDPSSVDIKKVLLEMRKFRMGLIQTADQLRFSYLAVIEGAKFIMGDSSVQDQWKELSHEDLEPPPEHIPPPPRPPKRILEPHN
Square brackets hold non-standard residues; d marks the D form. pY = N[C@@H](Cc1ccc(OP(=O)(O)O)cc1)C(=O)O
RECORDED_ENDPOINT: KM, steady-state dephosphorylation of the pY peptide (µM)
# value in µM; strip the unit string

For orientation, consider the following solved cases.
* Ac-AA[pY]ADDAA-NH2 (SMILES CC(=O)N[C@@H](C)C(=O)N[C@@H](C)C(=O)N[C@@H](Cc1ccc(OP(=O)(O)O)cc1)C(=O)N[C@@H](C)C(=O)N[C@@H](CC(=O)O)C(=O)N[C@@H](CC(=O)O)C(=O)N[C@@H](C)C(=O)N[C@@H](C)C(N)=O) [Ac-AApYADDAA-NH2] | 2.2
* Ac-DPRGI[pY]DQVAG-NH2 (SMILES CC[C@H](C)[C@H](NC(=O)CNC(=O)[C@H](CCCNC(=N)N)NC(=O)[C@@H]1CCCN1C(=O)[C@H](CC(=O)O)NC(C)=O)C(=O)N[C@@H](Cc1ccc(OP(=O)(O)O)cc1)C(=O)N[C@@H](CC(=O)O)C(=O)N[C@@H](CCC(N)=O)C(=O)N[C@H](C(=O)N[C@@H](C)C(=O)NCC(N)=O)C(C)C) [nephrin pY1217 peptide Ac-DPRGIpYDQVAG-NH2] | 7.1
* Ac-AA[pY]IRKRA-NH2 (SMILES CC[C@H](C)[C@H](NC(=O)[C@H](Cc1ccc(OP(=O)(O)O)cc1)NC(=O)[C@H](C)NC(=O)[C@H](C)NC(C)=O)C(=O)N[C@@H](CCCNC(=N)N)C(=O)N[C@@H](CCCCN)C(=O)N[C@@H](CCCNC(=N)N)C(=O)N[C@@H](C)C(N)=O) [Ac-AApYIRKRA-NH2] | 89
* Ac-EEDNAW[pY]AA-NH2 (SMILES CC(=O)N[C@@H](CCC(=O)O)C(=O)N[C@@H](CCC(=O)O)C(=O)N[C@@H](CC(=O)O)C(=O)N[C@@H](CC(N)=O)C(=O)N[C@@H](C)C(=O)N[C@@H](Cc1c[nH]c2ccccc12)C(=O)N[C@@H](Cc1ccc(OP(=O)(O)O)cc1)C(=O)N[C@@H](C)C(=O)N[C@@H](C)C(N)=O) [Ac-EEDNAWpYAA-NH2] | 1.3
* Ac-AA[pY]AAADD-NH2 (SMILES CC(=O)N[C@@H](C)C(=O)N[C@@H](C)C(=O)N[C@@H](Cc1ccc(OP(=O)(O)O)cc1)C(=O)N[C@@H](C)C(=O)N[C@@H](C)C(=O)N[C@@H](C)C(=O)N[C@@H](CC(=O)O)C(=O)N[C@@H](CC(=O)O)C(N)=O) [Ac-AApYAAADD-NH2] | 3

Which KM, steady-state dephosphorylation of the pY peptide is reported for this binder? Ac-ASSDE[pY]AA-NH2 (SMILES CC(=O)N[C@@H](C)C(=O)N[C@@H](CO)C(=O)N[C@@H](CO)C(=O)N[C@@H](CC(=O)O)C(=O)N[C@@H](CCC(=O)O)C(=O)N[C@@H](Cc1ccc(OP(=O)(O)O)cc1)C(=O)N[C@@H](C)C(=O)N[C@@H](C)C(N)=O) [Ac-ASSDEpYAA-NH2]
1.8

# repeat for Ac-AA[pY]DDAAA-NH2 (SMILES CC(=O)N[C@@H](C)C(=O)N[C@@H](C)C(=O)N[C@@H](Cc1ccc(OP(=O)(O)O)cc1)C(=O)N[C@@H](CC(=O)O)C(=O)N[C@@H](CC(=O)O)C(=O)N[C@@H](C)C(=O)N[C@@H](C)C(=O)N[C@@H](C)C(N)=O) [Ac-AApYDDAAA-NH2]
6.5
